Sourced from patent US10688131B2

subject of test: HLA-A*02:01 (Homo sapiens, UniProt P04439, D140Y/D185E/D98H/E176V/E277Q/G131W/G231S/I119V/I121R/I166T/I218V/L300P/L318F/N151K/N90K/P208A/P217A/Q86G/Q94H/R138H/R169H/T345S)
procedure summary: MHC binding assay: UV-ligand exchange with β2m ELISA
measurement context: binding of HLA-class I restricted peptides to HLA-A*02:01
result type: Peptide exchange (MHC class I binding score, peptide exchange yield)

substance	value
27 (YLAEPQWAV; listed as Homo sapiens) [compound 27]	++++ (>75% = ++++)
34 (ALDTFSVQV; listed as Homo sapiens) [compound 34]	++++ (>75% = ++++)
12 (TLTDEINFL; listed as Homo sapiens) [compound 12]	++++ (>75% = ++++)
57 (AILGFALSEA; listed as Homo sapiens) [compound 57]	++++ (>75% = ++++)
49 (YLWEAHTNI; listed as Homo sapiens) [compound 49]	++++ (>75% = ++++)
26 (TLVDENQSWYL; listed as Homo sapiens) [compound 26]	+++ (>50 = +++)
64 (KILESLFVSL; listed as Homo sapiens) [compound 64]	+++ (>50 = +++)
35 (ALVGDVILTV; listed as Homo sapiens) [compound 35]	++++ (>75% = ++++)
90 (TLNDGVVVQV; listed as Homo sapiens) [compound 90]	++++ (>75% = ++++)
4 (ILDINDNPPV; listed as Homo sapiens) [compound 4]	+++ (>50 = +++)
60 (SLGNFKDDLL; listed as Homo sapiens) [compound 60]	+++ (>50 = +++)
33 (AIYEGVGWNV; listed as Homo sapiens) [compound 33]	++++ (>75% = ++++)
63 (ALMDEINFMKM; listed as Homo sapiens) [compound 63]	++++ (>75% = ++++)
70 (FLFPAFLTA; listed as Homo sapiens) [compound 70]	++++ (>75% = ++++)
61 (FVAGYIAGV; listed as Homo sapiens) [compound 61]	++++ (>75% = ++++)
56 (FLQLETEQV; listed as Homo sapiens) [compound 56]	++++ (>75% = ++++)
81 (VLAENPDIFAV; listed as Homo sapiens) [compound 81]	+++ (>50 = +++)
28 (AVDPVSGSLYV; listed as Homo sapiens) [compound 28]	++++ (>75% = ++++)
80 (GLYGIKDDVFL; listed as Homo sapiens) [compound 80]	++++ (>75% = ++++)
89 (VLDEGLTSV; listed as Homo sapiens) [compound 89]	++++ (>75% = ++++)

---

subject of test: HLA-A*02:01 (Homo sapiens, UniProt P04439, D140Y/D185E/D98H/E176V/E277Q/G131W/G231S/I119V/I121R/I166T/I218V/L300P/L318F/N151K/N90K/P208A/P217A/Q86G/Q94H/R138H/R169H/T345S)
procedure summary: MHC binding assay: UV-ligand exchange with β2m ELISA
measurement context: binding of HLA-class I restricted peptides to HLA-A*02:01
result type: Peptide exchange (MHC class I binding score, peptide exchange yield)

substance	value
18 (YLYPDLSRL; listed as Homo sapiens) [compound 18]	++++ (>75% = ++++)
38 (KLLPGVQYV; listed as Homo sapiens) [compound 38]	++++ (>75% = ++++)
15 (SMLNNIINL; listed as Homo sapiens) [compound 15]	+++ (>50 = +++)
75 (ALASAPTSV; listed as Homo sapiens) [compound 75]	++++ (>75% = ++++)
46 (GLISSIEAQL; listed as Homo sapiens) [compound 46]	++++ (>75% = ++++)
20 (YLINEIDRIRA; listed as Homo sapiens) [compound 20]	++++ (>75% = ++++)
17 (SIWPALTQV; listed as Homo sapiens) [compound 17]	++++ (>75% = ++++)
37 (ILLEDVFQL; listed as Homo sapiens) [compound 37]	++++ (>75% = ++++)
71 (SLFPYVVLI; listed as Homo sapiens) [compound 71]	++++ (>75% = ++++)
51 (FLIPSIIFA; listed as Homo sapiens) [compound 51]	++++ (>75% = ++++)
78 (VLYGDVEEL; listed as Homo sapiens) [compound 78]	+++ (>50 = +++)
5 (VCPPGGIQEV; listed as Homo sapiens) [compound 5]	+++ (>50 = +++)
22 (KLPEPCPSTV; listed as Homo sapiens) [compound 22]	+++ (>50 = +++)
48 (YLLDYPNNL; listed as Homo sapiens) [compound 48]	+++ (>50 = +++)
79 (GLHQDFPSVVL; listed as Homo sapiens) [compound 79]	+++ (>50 = +++)
40 (LLTPLNLQI; listed as Homo sapiens) [compound 40]	+++ (>50 = +++)
8 (AQLNIGNVLPV; listed as Homo sapiens) [compound 8]	++++ (>75% = ++++)
85 (QLIEKITQV; listed as Homo sapiens) [compound 85]	+++ (>50 = +++)
72 (SLDGNPLAV; listed as Homo sapiens) [compound 72]	++++ (>75% = ++++)
36 (GLWSSIFSL; listed as Homo sapiens) [compound 36]	++++ (>75% = ++++)
